biological target: PDE1B (Homo sapiens); construct: purchased Reaction Biology Corporation, Malvern, Pa; assay: Phosphodiesterase enzyme screening assay, PDE1B; format: biochemical; details: Table 1; ratio of IC50 values; value greater than 1 indicates greater selectivity for PDE9A2
Here, each record is paired with measured PDE1B selectivity (versus PDE9A2) data.

- COMPOUND: "CC1CN(Cc2nc3ccccn3n2)CC1c1nn2c(C3CCC(F)(F)CC3)ncc2c(=O)[nH]1 (single isomer, unassigned; (+))"
  PDE1B selectivity (versus PDE9A2): 1847
- COMPOUND: "CC1CN(Cc2ccc3ncncc3c2)CC1c1nn2c(C3CCOCC3)ncc2c(=O)[nH]1 (single isomer, unassigned; (+))"
  PDE1B selectivity (versus PDE9A2): 1067
- COMPOUND: "CC1CN(Cc2cccc(OC(F)(F)F)c2)CC1c1nn2c(C3CCOCC3)ncc2c(=O)[nH]1 (single isomer, unassigned; (+))"
  PDE1B selectivity (versus PDE9A2): 99
- COMPOUND: "CC1CN(Cc2ccc3ccncc3c2)CC1c1nn2c(C3CCOCC3)ncc2c(=O)[nH]1 (single isomer, unassigned; (+))"
  PDE1B selectivity (versus PDE9A2): 893
- COMPOUND: "CC(=O)N1CCC(c2ncc3c(=O)[nH]c(C4CN(Cc5ccccc5)CC4C)nn23)CC1 (single isomer, unassigned; (+))"
  PDE1B selectivity (versus PDE9A2): 232
- COMPOUND: "Cc1cc(F)ccc1-c1ncc2c(=O)[nH]c(C3CN(Cc4ccccc4)CC3C)nn12 (single isomer, unassigned; (+))"
  PDE1B selectivity (versus PDE9A2): 225
- COMPOUND: "CC1CN(Cc2ccccc2N2CCCC2)CC1c1nn2c(C3CCOCC3)ncc2c(=O)[nH]1 (single isomer, unassigned; (+))"
  PDE1B selectivity (versus PDE9A2): 213

----------
molecular target: PDE1B (Homo sapiens); construct: purchased Reaction Biology Corporation, Malvern, Pa; assay: Phosphodiesterase enzyme screening assay, PDE1B; format: biochemical; conditions: ratio of IC50 values PDE1B / PDE9A2; value greater than 1 indicates greater selectivity for PDE9A2
We label by threshold. Values of PDE1B selectivity (versus PDE9A2) strictly beneath 100 are Criterion met. Values of 100 and up are Criterion not met.

- COMPOUND: "CCC(CC)c1ncc2c(=O)[nH]c(C3CN(Cc4nc5ccccn5n4)CC3C)nn12 (single isomer, unassigned; (+))"
  QUALITATIVE_LABEL: "Criterion not met"
- COMPOUND: "Cc1cnccc1-c1ncc2c(=O)[nH]c(C3CN(Cc4cn5ccccc5n4)CC3C)nn12 (single isomer, unassigned; (+))"
  QUALITATIVE_LABEL: "Criterion not met"
- COMPOUND: "CC1CN(Cc2ccc(F)cc2)CC1c1nn2c(-c3ccccc3F)ncc2c(=O)[nH]1 (single isomer, unassigned; (+))"
  QUALITATIVE_LABEL: "Criterion not met"
- COMPOUND: "Cc1cnccc1-c1ncc2c(=O)[nH]c(C3CN(Cc4ncccn4)CC3C)nn12 (single isomer, unassigned; (+))"
  QUALITATIVE_LABEL: "Criterion met"
- COMPOUND: "Cc1cnccc1-c1ncc2c(=O)[nH]c(C3CN(Cc4ccccc4)CC3C)nn12 (single isomer, unassigned; (+))"
  QUALITATIVE_LABEL: "Criterion not met"
- COMPOUND: "CCC(CC)c1ncc2c(=O)[nH]c(C3CN(Cc4cn5ccccc5n4)CC3C)nn12 (single isomer, unassigned; (+))"
  QUALITATIVE_LABEL: "Criterion met"
- COMPOUND: "CC1CN(Cc2ncccn2)CC1c1nn2c(-c3ccccc3F)ncc2c(=O)[nH]1 (single isomer, unassigned; (+))"
  QUALITATIVE_LABEL: "Criterion met"
- COMPOUND: "CC1CN(Cc2ccccc2)CC1c1nn2c(-c3ccccc3F)ncc2c(=O)[nH]1 (single isomer, unassigned; (+))"
  QUALITATIVE_LABEL: "Criterion met"

----------
molecular target: PDE1B (Homo sapiens, UniProt Q01064); construct: purchased Reaction Biology Corporation, Malvern, Pa; test: Phosphodiesterase enzyme screening assay, PDE1B; assay type: biochemical; settings: ratio of IC50 values; value greater than 1 indicates greater selectivity for PDE9A2
Sequence (Q01064 whole entry): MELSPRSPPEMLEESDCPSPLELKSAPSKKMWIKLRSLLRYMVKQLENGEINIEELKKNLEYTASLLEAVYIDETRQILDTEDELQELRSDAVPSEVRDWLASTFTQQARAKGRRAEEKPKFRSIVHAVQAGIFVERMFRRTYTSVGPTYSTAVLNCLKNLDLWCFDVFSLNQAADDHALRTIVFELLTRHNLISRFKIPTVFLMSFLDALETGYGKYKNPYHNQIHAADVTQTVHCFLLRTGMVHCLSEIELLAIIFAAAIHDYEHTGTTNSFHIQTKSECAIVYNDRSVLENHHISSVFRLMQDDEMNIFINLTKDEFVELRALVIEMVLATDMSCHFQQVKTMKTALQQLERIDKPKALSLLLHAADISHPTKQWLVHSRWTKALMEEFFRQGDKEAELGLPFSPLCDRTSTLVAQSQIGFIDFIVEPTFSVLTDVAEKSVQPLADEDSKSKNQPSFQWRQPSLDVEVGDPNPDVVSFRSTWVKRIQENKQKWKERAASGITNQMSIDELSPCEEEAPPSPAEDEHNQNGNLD
Binned PDE1B selectivity (versus PDE9A2); ranges: low = under 90, medium = from 90 up to 300, high = 300 and over

- MOLECULE: "CC1CN(Cc2nccn2C)CC1c1nn2c(C3CCOCC3)ncc2c(=O)[nH]1 (single isomer, unassigned; (+))"
  QUALITATIVE_LABEL: "medium"
- MOLECULE: "CC1CN(Cc2ncco2)CC1c1nn2c(C3CCOCC3)ncc2c(=O)[nH]1 (single isomer, unassigned; (+))"
  QUALITATIVE_LABEL: "medium"
- MOLECULE: "Cc1nc(CN2CC(C)C(c3nn4c(C5CCOCC5)ncc4c(=O)[nH]3)C2)cs1 (single isomer, unassigned; (+))"
  QUALITATIVE_LABEL: "low"
- MOLECULE: "CC1CN(Cc2ncno2)CC1c1nn2c(C3CCOCC3)ncc2c(=O)[nH]1 (single isomer, unassigned; (+))"
  QUALITATIVE_LABEL: "high"
- MOLECULE: "Cc1nc(CN2CC(C)C(c3nn4c(C5CCOCC5)ncc4c(=O)[nH]3)C2)no1 (single isomer, unassigned; (+))"
  QUALITATIVE_LABEL: "low"
- MOLECULE: "CC1CN(CC2CCC(F)(F)CC2)CC1c1nn2c(C3CCOCC3)ncc2c(=O)[nH]1 (single isomer, unassigned; (+))"
  QUALITATIVE_LABEL: "low"
- MOLECULE: "CC1CN(Cc2ncn(C)n2)CC1c1nn2c(C3CCOCC3)ncc2c(=O)[nH]1 (single isomer, unassigned; (+))"
  QUALITATIVE_LABEL: "medium"
- MOLECULE: "CC1CN(Cc2cnn3ccccc23)CC1c1nn2c(C3CCOCC3)ncc2c(=O)[nH]1 (single isomer, unassigned; (+))"
  QUALITATIVE_LABEL: "high"
- MOLECULE: "CC1CN(CC2CCOCC2)CC1c1nn2c(C3CCOCC3)ncc2c(=O)[nH]1 (single isomer, unassigned; (+))"
  QUALITATIVE_LABEL: "medium"
- MOLECULE: "CC1CN(Cc2ncon2)CC1c1nn2c(C3CCOCC3)ncc2c(=O)[nH]1 (single isomer, unassigned; (+))"
  QUALITATIVE_LABEL: "low"
- MOLECULE: "COc1ccc(CN2CC(C)C(c3nn4c(C5CCOCC5)ncc4c(=O)[nH]3)C2)nc1 (single isomer, unassigned; (+))"
  QUALITATIVE_LABEL: "high"
- MOLECULE: "CC1CN(Cc2nccs2)CC1c1nn2c(C3CCOCC3)ncc2c(=O)[nH]1 (single isomer, unassigned; (+))"
  QUALITATIVE_LABEL: "medium"
- MOLECULE: "CC1CN(CC2CCN(C(=O)OC(C)(C)C)CC2)CC1c1nn2c(C3CCOCC3)ncc2c(=O)[nH]1 (single isomer, unassigned; (-))"
  QUALITATIVE_LABEL: "medium"
- MOLECULE: "CC1CN(Cc2ccc(-c3ccccc3)cc2)CC1c1nn2c(C3CCOCC3)ncc2c(=O)[nH]1 (single isomer, unassigned; (-))"
  QUALITATIVE_LABEL: "high"
- MOLECULE: "CC1CN(Cc2cnn3c2CCCC3)CC1c1nn2c(C3CCOCC3)ncc2c(=O)[nH]1 (single isomer, unassigned; (+))"
  QUALITATIVE_LABEL: "high"

----------
Here, each record is paired with measured PDE1A selectivity (versus PDE9A2) data.
target: PDE1A (Homo sapiens); construct: purchased Reaction Biology Corporation, Malvern, Pa; assay: Phosphodiesterase enzyme screening assay, PDE1A; type: biochemical; conditions: Table 1; ratio of IC50 values; value greater than 1 indicates greater selectivity for PDE9A2
Sequence (P54750 whole entry): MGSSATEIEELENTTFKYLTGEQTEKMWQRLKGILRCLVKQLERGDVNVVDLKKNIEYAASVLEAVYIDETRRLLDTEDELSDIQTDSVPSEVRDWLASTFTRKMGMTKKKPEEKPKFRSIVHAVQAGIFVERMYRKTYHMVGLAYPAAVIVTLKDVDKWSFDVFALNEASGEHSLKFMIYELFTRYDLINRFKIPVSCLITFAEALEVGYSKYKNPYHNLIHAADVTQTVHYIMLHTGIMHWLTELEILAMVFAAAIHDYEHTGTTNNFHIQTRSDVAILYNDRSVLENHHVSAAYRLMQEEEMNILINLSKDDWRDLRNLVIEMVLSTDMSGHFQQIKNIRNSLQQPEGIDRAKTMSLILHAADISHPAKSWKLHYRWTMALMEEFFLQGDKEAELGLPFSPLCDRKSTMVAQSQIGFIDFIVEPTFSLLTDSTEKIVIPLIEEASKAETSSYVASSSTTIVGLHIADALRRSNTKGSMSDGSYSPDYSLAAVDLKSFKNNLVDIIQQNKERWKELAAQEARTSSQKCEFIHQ

- MOLECULE: "CC1CN(Cc2cc(F)ccc2F)CC1c1nn2c(C3CCOCC3)ncc2c(=O)[nH]1 (single isomer, unassigned; (+))"
  PDE1A selectivity (versus PDE9A2): 97
- MOLECULE: "Cc1ncc(CN2CC(C)C(c3nn4c(C5CCOCC5)ncc4c(=O)[nH]3)C2)s1 (single isomer, unassigned; (+))"
  PDE1A selectivity (versus PDE9A2): 129
- MOLECULE: "CC1CN(Cc2cccc(C(F)(F)F)c2)CC1c1nn2c(C3CCOCC3)ncc2c(=O)[nH]1 (single isomer, unassigned; (+))"
  PDE1A selectivity (versus PDE9A2): 203
- MOLECULE: "CC1CN(Cc2ncc3ccccc3n2)CC1c1nn2c(C3CCOCC3)ncc2c(=O)[nH]1 (single isomer, unassigned; (+)) [(+)-2-((3,4-trans)-4-methyl-1-(quinazolin-2-ylmethyl)pyrroli]"
  PDE1A selectivity (versus PDE9A2): 973
- MOLECULE: "CC1CN(C(=O)c2ncc3ccccc3n2)CC1c1nn2c(C3CCOCC3)ncc2c(=O)[nH]1 (single isomer, unassigned; (-))"
  PDE1A selectivity (versus PDE9A2): 32
- MOLECULE: "COc1cccc(CN2CC(C)C(c3nn4c(C5CCOCC5)ncc4c(=O)[nH]3)C2)n1 (single isomer, unassigned; (+))"
  PDE1A selectivity (versus PDE9A2): 579
- MOLECULE: "CC1CN(Cc2ccc(Cl)c(F)c2)CC1c1nn2c(C3CCOCC3)ncc2c(=O)[nH]1 (single isomer, unassigned; (+))"
  PDE1A selectivity (versus PDE9A2): 3575
